Quick list: Solubility per entry.
# assay_remarks: Solubility in PBS
# Type: physicochemical
Report the value in µM with no unit label.

Below: 3 molecules and their reported Solubility.
CC(=O)N1CCC[C@]12CC=CCCCC1(CCCC=CCCCCCC[C@@](C)(C(=O)N[C@@H](Cc3ccsc3)C(=O)N[C@@H](Cc3csc4ccccc34)C(=O)N[C@@H](CCC(N)=O)C(=O)N[C@@H](C)C(=O)N[C@@H](C)C(=O)N[C@H](C)C(N)=O)NC(=O)[C@H](CC(N)=O)NC(=O)[C@H](Cc3ccccc3)NC(=O)[C@H](C)NC(=O)[C@H](C)NC(=O)[C@H](CC(=O)O)NC(=O)[C@H](CC(=O)O)NC1=O)NC(=O)[C@H](CC(C)(C)C)NC(=O)[C@H](CC(=O)O)NC2=O (stereo partly shown) | 50
CC(=O)N1CCC[C@]12CC=CCCCC1(CCCC=CCCCCCC[C@@](C)(C(=O)N[C@@H](Cc3ccccc3)C(=O)N[C@@H](Cc3csc4ccccc34)C(=O)N[C@@H](Cc3c[nH]cn3)C(N)=O)NC(=O)[C@H](CC(N)=O)NC(=O)[C@H](Cc3ccccc3)NC(=O)[C@H](C)NC(=O)[C@H](C)NC(=O)[C@H](CC(=O)O)NC(=O)[C@H](CC(=O)O)NC1=O)NC(=O)[C@H](CC(C)C)NC(=O)[C@H](CC(=O)O)NC2=O (stereo partly shown) [I-564] | 47
CC(=O)N1CCC[C@]12CC=CCCCC1(CCCC=CCCCCCC[C@@](C)(C(=O)N[C@@H](Cc3ccccc3)C(=O)N[C@@H](Cc3c[nH]c4ccccc34)C(=O)N[C@@H](CCC(N)=O)C(N)=O)NC(=O)[C@H](C(C)C)NC(=O)[C@H](Cc3ccccc3)NC(=O)[C@H](C)NC(=O)[C@H](C)NC(=O)[C@H](CCc3ccc(O)cc3)NC(=O)[C@H](CC(=O)O)NC1=O)NC(=O)[C@H](C)NC(=O)[C@H](CC(=O)O)NC2=O (stereo partly shown) | 10

Query :: // returns reported Solubility for input CC(=O)N1CCC[C@]12CC=CCCCC1(CCCC=CCCCCCC[C@@](C)(C(=O)N[C@@H](Cc3cccc(F)c3)C(=O)N[C@@H](Cc3csc4ccccc34)C(=O)N[C@@H](CCC(N)=O)C(N)=O)NC(=O)[C@H](CCC(N)=O)NC(=O)[C@H](Cc3ccsc3)NC(=O)[C@H](C)NC(=O)[C@H](C)NC(=O)[C@H](CCC(=O)O)NC(=O)[C@H](CC(=O)O)NC1=O)NC(=O)[C@H](C)NC(=O)[C@H](CC(=O)O)NC2=O (stereo partly shown)
Result :: 50

Query :: // returns reported Solubility for input CC(=O)N1CCC[C@]12CC=CCCCC1(CCCC=CCCCCCC[C@@](C)(C(=O)N[C@@H](Cc3ccccc3)C(=O)N[C@@H](Cc3csc4ccccc34)C(=O)N[C@@H](CCC(N)=O)C(N)=O)NC(=O)[C@H](C)NC(=O)[C@H](Cc3cccc(C(F)(F)F)c3)NC(=O)[C@H](C)NC(=O)[C@H](C)NC(=O)[C@H](CC(=O)O)NC(=O)[C@H](CC(=O)O)NC1=O)NC(=O)[C@H](C)NC(=O)[C@H](CC(=O)O)NC2=O (stereo partly shown) [I-377]
Result :: 48

Query :: // returns reported Solubility for input CC(=O)N1CCC[C@]12CC=CCCCC1(CCCC=CCCCOC(=O)N3CC[C@@](C(=O)N[C@@H](Cc4ccsc4)C(=O)N[C@@H](Cc4csc5ccccc45)C(=O)N[C@H](CO)[C@@H](C)O)(C3)NC(=O)[C@H]([C@@H](C)O)NC(=O)[C@H](Cc3ccccc3)NC(=O)[C@H](C)NC(=O)[C@H](C)NC(=O)[C@H](CC(=O)O)NC(=O)[C@H](CC(=O)O)NC1=O)NC(=O)[C@H](CC(C)(C)C)NC(=O)[C@H](CC(=O)O)NC2=O (stereo partly shown)
Result :: 50

Query :: // returns reported Solubility for input CC(=O)N1CCC[C@]12CC=CCCCC1(CCCC=CCCCCCC[C@@](C)(C(=O)N[C@@H](Cc3ccccc3)C(=O)N[C@@H](Cc3csc4ccccc34)C(=O)N[C@@H](CCC(N)=O)C(N)=O)NC(=O)[C@H](CC(N)=O)NC(=O)[C@H](Cc3ccccc3)NC(=O)[C@H](C)NC(=O)[C@H](C)NC(=O)[C@H](CCC(=O)O)NC(=O)[C@H](CC(=O)O)NC1=O)NC(=O)[C@H](CC(C)C)NC(=O)[C@H](CC(=O)O)NC2=O (stereo partly shown) [I-576]
Result :: 46

Query :: // returns reported Solubility for input CC(=O)N1CCC[C@]12CC=CCCCC1(CCCC=CCCCCCC[C@@](C)(C(=O)N[C@@H](Cc3ccccc3)C(=O)N[C@@H](Cc3csc4ccccc34)C(=O)N[C@@H](Cc3c[nH]cn3)C(N)=O)NC(=O)[C@H](CCCNC(N)=O)NC(=O)[C@H](Cc3ccccc3)NC(=O)[C@H](C)NC(=O)[C@H](C)NC(=O)[C@H](CCC(=O)O)NC(=O)[C@H](CC(=O)O)NC1=O)NC(=O)[C@H](CC(C)C)NC(=O)[C@H](CC(=O)O)NC2=O (stereo partly shown)
Result :: 10

Query :: // returns reported Solubility for input CC(=O)N1CCC[C@]12CC=CCCCC1(CCCC=CCCCOC(=O)N3CC[C@@](C(=O)N[C@@H](Cc4ccccc4Cl)C(=O)N[C@@H](Cc4csc5ccccc45)C(=O)N[C@@H](CO)C(N)=O)(C3)NC(=O)[C@H](CC(C)C)NC(=O)[C@H](Cc3ccccc3)NC(=O)[C@H](C)NC(=O)[C@H](C)NC(=O)[C@H](Cc3cccc(C(=O)O)c3)NC(=O)[C@H](CC(=O)O)NC1=O)NC(=O)[C@H](CC(C)(C)C)NC(=O)[C@H](CC(=O)O)NC2=O (stereo partly shown)
Result :: 10

Query :: // returns reported Solubility for input CC(=O)N1CCC[C@]12CC=CCCCC1(CCCC=CCCCOC(=O)N3CC[C@@](C(=O)N[C@@H](Cc4csc5ccccc45)C(=O)N[C@@H](Cc4csc5ccccc45)C(=O)N[C@@H](Cc4c[nH]cn4)C(N)=O)(C3)NC(=O)[C@H](CC(N)=O)NC(=O)[C@H](Cc3ccccc3)NC(=O)[C@H](C)NC(=O)[C@H](C)NC(=O)[C@H](CC(=O)O)NC(=O)[C@H](CC(=O)O)NC1=O)NC(=O)[C@H](CC(C)(C)C)NC(=O)[C@H](CC(=O)O)NC2=O (stereo partly shown)
Result :: 10

---

# system_tested: beta-catenin/TCF4 engagement (Homo sapiens, UniProt P35222)
# Construct: expressed in transfected cells; host or cells: HEK293
# Sequence (P35222 whole entry): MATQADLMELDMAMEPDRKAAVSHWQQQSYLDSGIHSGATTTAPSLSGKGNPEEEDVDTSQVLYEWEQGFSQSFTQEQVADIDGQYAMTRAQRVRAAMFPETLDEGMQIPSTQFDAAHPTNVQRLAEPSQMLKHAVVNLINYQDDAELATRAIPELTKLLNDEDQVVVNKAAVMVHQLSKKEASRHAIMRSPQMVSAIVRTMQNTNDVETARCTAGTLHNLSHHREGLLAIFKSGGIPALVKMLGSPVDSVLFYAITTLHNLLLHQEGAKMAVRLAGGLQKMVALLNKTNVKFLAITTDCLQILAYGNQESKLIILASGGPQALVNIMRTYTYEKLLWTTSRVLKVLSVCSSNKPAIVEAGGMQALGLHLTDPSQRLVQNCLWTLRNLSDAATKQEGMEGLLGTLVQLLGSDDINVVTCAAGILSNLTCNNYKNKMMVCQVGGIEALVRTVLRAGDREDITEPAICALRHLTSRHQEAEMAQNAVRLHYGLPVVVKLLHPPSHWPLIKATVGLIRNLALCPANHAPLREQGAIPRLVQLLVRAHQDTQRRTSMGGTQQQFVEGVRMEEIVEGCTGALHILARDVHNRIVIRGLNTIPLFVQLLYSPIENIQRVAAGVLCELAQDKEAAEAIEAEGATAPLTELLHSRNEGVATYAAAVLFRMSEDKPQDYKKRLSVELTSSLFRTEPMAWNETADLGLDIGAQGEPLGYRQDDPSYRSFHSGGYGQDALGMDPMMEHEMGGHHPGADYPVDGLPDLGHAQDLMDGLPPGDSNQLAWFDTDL
# assay_remarks: Nano-BRET target engagement assay (B-cat-Halo & TCF4-Luc in HEK293 cells)
# Type: cell-based
# measurement_conditions: absolute IC50; read-out: NanoBRET Abs IC50
quantity_name: pIC50
The meaning of pIC50 here: minus log10 of the concentration in molar units.

Below: 2 compounds and their reported pIC50.
CC(=O)N1CCC[C@]12CC=CCCCC1(CCCC=CCCCOC(=O)N3CC[C@@](C(=O)N[C@@H](Cc4ccsc4)C(=O)N[C@@H](Cc4cccc(Cl)c4)C(=O)N[C@@H](CCC(N)=O)C(N)=O)(C3)NC(=O)[C@H](CC(C)C)NC(=O)[C@H](Cc3ccccc3)NC(=O)[C@H](C)NC(=O)[C@H](C)NC(=O)[C@H](Cc3cccc(C(=O)O)c3)NC(=O)[C@H](CC(=O)O)NC1=O)NC(=O)[C@H](CC(C)(C)C)NC(=O)[C@H](CC(=O)O)NC2=O (some centres unmarked) | 4.85
CC(=O)N1CCC[C@]12CC=CCCCC1(CCCC=CCCCOC(=O)N3CC[C@@](C(=O)N[C@@H](Cc4ccsc4)C(=O)N[C@@H](Cc4csc5ccccc45)C(=O)N[C@@H](CCC(N)=O)C(N)=O)(C3)NC(=O)[C@H]([C@@H](C)O)NC(=O)[C@H](Cc3ccccc3)NC(=O)[C@H](C)NC(=O)[C@H](C)NC(=O)[C@H](Cc3cccc(C(=O)O)c3)NC(=O)[C@H](CC(N)=O)NC1=O)NC(=O)[C@H](CC(C)(C)C)NC(=O)[C@H](CC(=O)O)NC2=O (some centres unmarked) | 4.84

Query :: // returns reported pIC50 for input CC(=O)N1CCC[C@]12CC=CCCCC1(CCCC=CCCCCCC[C@@](C)(C(=O)N[C@@H](Cc3ccccc3)C(=O)N[C@@H](Cc3csc4ccccc34)C(=O)N[C@@H](CCC(N)=O)C(N)=O)NC(=O)[C@H](CCO)NC(=O)[C@H](Cc3ccccc3)NC(=O)[C@H](C)NC(=O)[C@H](C)NC(=O)[C@H](CCC(=O)O)NC(=O)[C@H](CC(=O)O)NC1=O)NC(=O)[C@H](CO)NC(=O)[C@H](CC(=O)O)NC2=O (some centres unmarked) [I-1530]
Result :: 4.43

Query :: // returns reported pIC50 for input CC(=O)N1CCC[C@]12CC=CCCCC1(CCCC=CCCCOC(=O)N3CC[C@@](C(=O)N[C@@H](Cc4ccccc4C(F)(F)F)C(=O)N[C@@H](Cc4csc5ccccc45)C(=O)N[C@@H](CO)C(N)=O)(C3)NC(=O)[C@H](CC(C)C)NC(=O)[C@H](Cc3ccccc3)NC(=O)[C@H](C)NC(=O)[C@H](C)NC(=O)[C@H](Cn3cc(CC(=O)O)nn3)NC(=O)[C@H](CC(=O)O)NC1=O)NC(=O)[C@H](CC(C)(C)C)NC(=O)[C@H](CC(=O)O)NC2=O (some centres unmarked)
Result :: 5.40

Query :: // returns reported pIC50 for input CC(=O)N1CCC[C@]12CC=CCCCC1(CCCC=CCCCOC(=O)N3CC[C@@](C(=O)N[C@@H](Cc4ccsc4)C(=O)N[C@@H](Cc4ccc(F)c(Br)c4)C(=O)N[C@@H](CCC(N)=O)C(N)=O)(C3)NC(=O)[C@H](CC(C)C)NC(=O)[C@H](Cc3ccccc3)NC(=O)[C@H](C)NC(=O)[C@H](C)NC(=O)[C@H](Cc3cccc(C(=O)O)c3)NC(=O)[C@H](CC(=O)O)NC1=O)NC(=O)[C@H](CC(C)(C)C)NC(=O)[C@H](CC(=O)O)NC2=O (some centres unmarked)
Result :: 5.15
